Origin of values: paper PMC6332508

Molecular target: human α7 nAChR (Homo sapiens)
Construct: expressed in transfected cells; host or cells: SH-SY5Y
Assay: Radioligand displacement at human α7 nAChR, [3H]methyllycaconitine, SH-SY5Y cells
Format: binding
quantity measured: pKi
Kindly note that pKi refers to -log10 of the concentration in mol/L and answer with the value alone.

Consider the compound shown here: O=S1(=O)c2ccccc2-c2ccc(N3CCN4CCC3CC4)cc21 What is its recorded pKi?
9.29

====

Biological target: human α7 nAChR (Homo sapiens, UniProt P36544)
Construct: expressed in transfected cells; host or cells: SH-SY5Y
Sequence (P36544 23-502): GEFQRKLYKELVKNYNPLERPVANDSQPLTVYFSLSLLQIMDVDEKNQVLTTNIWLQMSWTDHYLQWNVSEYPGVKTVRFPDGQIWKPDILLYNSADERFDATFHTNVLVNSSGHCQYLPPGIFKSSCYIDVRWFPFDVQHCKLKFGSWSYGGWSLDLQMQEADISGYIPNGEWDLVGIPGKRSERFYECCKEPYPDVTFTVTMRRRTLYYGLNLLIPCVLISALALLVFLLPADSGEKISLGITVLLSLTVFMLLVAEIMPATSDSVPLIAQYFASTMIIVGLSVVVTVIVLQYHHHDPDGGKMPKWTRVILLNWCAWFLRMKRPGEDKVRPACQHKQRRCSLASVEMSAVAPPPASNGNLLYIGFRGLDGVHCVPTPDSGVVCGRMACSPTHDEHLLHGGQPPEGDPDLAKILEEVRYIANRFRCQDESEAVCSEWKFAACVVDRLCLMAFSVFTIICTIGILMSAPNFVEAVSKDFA
Assay: Radioligand displacement at human α7 nAChR, [3H]methyllycaconitine, SH-SY5Y cells
Assay type: binding
Conditions: Ki hα3β4 divided by Ki hα7
Reported Selectivity (Ki ratio) α7/α3β4 values for the following molecules.
API note: the answer field is a bare number with no unit suffix.

O=S1(=O)c2ccc(F)cc2-c2ccc(N3CCN4CCC3CC4)cc21 [Compound 10a] | 198
O=S1(=O)c2ccccc2-c2ccc(N3CCN4CCC3CC4)cc21 | 97

Return reported Selectivity (Ki ratio) α7/α3β4; argument: CN1C2CCCC1CN(c1ccc3c(c1)S(=O)(=O)c1c(F)cccc1-3)C2 [Compound 12b]
1

Quick check: Selectivity (Ki ratio) α7/α3β4 of CN1C2CCC1CN(c1ccc3c(c1)S(=O)(=O)c1c(F)cccc1-3)C2 [Compound 13b] ?
5

Reported Selectivity (Ki ratio) α7/α3β4, molecule O=S1(=O)c2ccccc2-c2cc(F)c(N3CCN4CCC3CC4)cc21 [Compound 10c] : ____
33

Record request: Selectivity (Ki ratio) α7/α3β4 value, item CN1C2CCCC1CN(c1ccc3c(c1)S(=O)(=O)c1ccc(F)cc1-3)C2 [Compound 12a]
3

====

Molecular target: human α3β4 nAChR (Homo sapiens, UniProt P30926+P32297)
Construct: expressed in transfected cells; host or cells: HEK293
Sequence (P32297 32-505): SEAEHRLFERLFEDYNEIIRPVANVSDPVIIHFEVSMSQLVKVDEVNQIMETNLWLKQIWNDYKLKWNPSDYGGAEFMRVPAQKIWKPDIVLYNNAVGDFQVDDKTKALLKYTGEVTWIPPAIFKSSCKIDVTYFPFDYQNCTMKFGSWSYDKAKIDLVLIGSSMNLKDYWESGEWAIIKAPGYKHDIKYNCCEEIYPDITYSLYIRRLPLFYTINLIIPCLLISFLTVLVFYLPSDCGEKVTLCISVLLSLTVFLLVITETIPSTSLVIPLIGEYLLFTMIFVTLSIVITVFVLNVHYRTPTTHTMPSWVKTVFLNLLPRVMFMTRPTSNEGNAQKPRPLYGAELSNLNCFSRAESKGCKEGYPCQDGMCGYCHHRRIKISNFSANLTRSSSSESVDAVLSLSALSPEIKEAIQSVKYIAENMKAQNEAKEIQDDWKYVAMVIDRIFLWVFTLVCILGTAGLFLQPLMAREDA
Sequence (P30926 22-498): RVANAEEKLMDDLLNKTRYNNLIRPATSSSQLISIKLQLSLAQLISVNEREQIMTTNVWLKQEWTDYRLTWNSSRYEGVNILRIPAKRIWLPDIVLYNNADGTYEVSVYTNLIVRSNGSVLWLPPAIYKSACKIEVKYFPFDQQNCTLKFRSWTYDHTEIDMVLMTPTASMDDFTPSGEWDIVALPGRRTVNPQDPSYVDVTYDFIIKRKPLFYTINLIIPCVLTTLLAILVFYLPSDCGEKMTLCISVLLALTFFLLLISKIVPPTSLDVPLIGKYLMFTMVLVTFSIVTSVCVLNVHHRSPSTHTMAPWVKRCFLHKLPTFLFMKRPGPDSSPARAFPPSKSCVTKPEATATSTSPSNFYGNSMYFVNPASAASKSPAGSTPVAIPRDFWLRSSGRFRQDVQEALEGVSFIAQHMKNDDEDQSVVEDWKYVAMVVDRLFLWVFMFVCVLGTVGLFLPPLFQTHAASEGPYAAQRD
Test: Radioligand displacement at human α3β4 nAChR, [3H]epibatidine, HEK293 cells
Assay type: binding
Method: The affinity of the test compounds for human α4β2 and α3β4 nAChR was determined as described above. In brief, HEK293 cells stably expressing human α4β2 or α3β4 nAChR [66] were cultured. […] Nonspecific binding was determined in the presence of 300 μM (−)-nicotine tartrate. Incubation of the samples, separation of free from receptor-bound radioligand, and data evaluation were performed as described above.
quantity measured: Ki

Fill in the recorded Ki for this compound, with human α3β4 nAChR (Homo sapiens, UniProt P30926+P32297) as test system: O=S1(=O)c2ccccc2-c2cc(F)c(N3CCN4CCC3CC4)cc21 [Compound 10c]
279 nM

====

Target: rat α6β2* nAChR (Rattus norvegicus, UniProt P12390+P43143)
Sequence (P43143 31-493): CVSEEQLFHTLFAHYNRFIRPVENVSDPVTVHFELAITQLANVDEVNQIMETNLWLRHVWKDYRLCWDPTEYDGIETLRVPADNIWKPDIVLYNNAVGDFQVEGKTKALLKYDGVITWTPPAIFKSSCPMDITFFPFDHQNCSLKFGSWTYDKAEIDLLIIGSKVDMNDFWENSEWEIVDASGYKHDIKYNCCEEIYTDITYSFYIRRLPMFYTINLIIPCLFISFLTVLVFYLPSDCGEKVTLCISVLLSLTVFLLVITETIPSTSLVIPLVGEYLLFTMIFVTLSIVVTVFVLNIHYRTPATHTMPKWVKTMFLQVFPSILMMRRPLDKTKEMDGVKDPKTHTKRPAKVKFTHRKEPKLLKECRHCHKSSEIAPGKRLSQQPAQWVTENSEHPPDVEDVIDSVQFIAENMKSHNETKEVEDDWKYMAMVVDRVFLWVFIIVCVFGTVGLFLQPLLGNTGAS
Sequence (P12391 31-464, further chain): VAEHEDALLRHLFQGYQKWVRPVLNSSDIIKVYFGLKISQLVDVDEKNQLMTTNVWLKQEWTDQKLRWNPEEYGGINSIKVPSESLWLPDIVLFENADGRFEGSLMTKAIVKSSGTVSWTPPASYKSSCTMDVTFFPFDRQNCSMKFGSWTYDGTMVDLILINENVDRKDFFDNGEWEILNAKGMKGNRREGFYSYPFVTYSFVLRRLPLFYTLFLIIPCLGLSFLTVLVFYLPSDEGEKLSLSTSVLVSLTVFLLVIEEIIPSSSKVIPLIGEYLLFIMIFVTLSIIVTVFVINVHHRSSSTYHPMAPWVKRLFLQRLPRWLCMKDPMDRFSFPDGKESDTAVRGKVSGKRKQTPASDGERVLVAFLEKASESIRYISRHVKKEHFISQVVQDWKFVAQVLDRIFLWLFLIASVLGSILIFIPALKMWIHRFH
Sequence (P12390 25-500): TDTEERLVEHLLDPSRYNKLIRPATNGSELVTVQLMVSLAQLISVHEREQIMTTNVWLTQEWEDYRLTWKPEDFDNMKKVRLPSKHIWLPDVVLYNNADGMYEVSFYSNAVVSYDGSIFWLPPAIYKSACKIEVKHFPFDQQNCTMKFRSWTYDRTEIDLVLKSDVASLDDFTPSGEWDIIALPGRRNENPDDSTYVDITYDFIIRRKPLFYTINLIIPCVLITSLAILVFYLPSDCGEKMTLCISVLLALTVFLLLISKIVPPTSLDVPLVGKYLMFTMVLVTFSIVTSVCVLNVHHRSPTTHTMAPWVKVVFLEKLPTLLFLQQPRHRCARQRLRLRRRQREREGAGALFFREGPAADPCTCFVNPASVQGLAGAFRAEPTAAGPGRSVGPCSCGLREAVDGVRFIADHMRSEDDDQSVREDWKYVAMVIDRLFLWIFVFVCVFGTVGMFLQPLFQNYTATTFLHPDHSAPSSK
Experiment: [3H]epibatidine binding to antibody-immobilized native rat α6β2* nAChR from striatum
Details: read-out: Affinity (Ki in nM) rα6β2*, immunoimmobilization with anti-rα6 antibody, [3H]epibatidine 0.1 nM
The threshold is 1000 nM. Values of Ki beneath it are tagged true (1); values meeting or exceeding it are tagged false (0).

Worked set:
O=S1(=O)c2ccc(F)cc2-c2ccc(N3CCN4CCC3CC4)cc21 [Compound 10a] | true (1)
O=S1(=O)c2cc(N3CCN4CCC3CC4)ccc2-c2cccc(F)c21 [Compound 10b] | true (1)
O=S1(=O)c2ccccc2-c2ccc(N3CCN4CCC3CC4)cc21 | true (1)

Problem: For the compound CN1C2CCCC1CN(c1ccc3c(c1)S(=O)(=O)c1ccc(F)cc1-3)C2 [Compound 12a] , is Ki under 1000 nM?
false (0)

Record O=S1(=O)c2ccccc2-c2cc(F)c(N3CCN4CCC3CC4)cc21 [Compound 10c] : is its Ki strictly below 1000 nM?
false (0)

I'd appreciate it if you could check whether CN1CC2CCC(C1)N2c1ccc2c(c1)S(=O)(=O)c1c(F)cccc1-2 [Compound 14b] has Ki smaller than 1000 nM.
false (0)

Lab note: Ki threshold 1000 nM. Does this compound come in strictly under it? CN1C2CCCC1CN(c1ccc3c(c1)S(=O)(=O)c1c(F)cccc1-3)C2 [Compound 12b]
false (0)

State whether 1000 nM exceeds Ki recorded for CN1C2CCC1CN(c1ccc3c(c1)S(=O)(=O)c1c(F)cccc1-3)C2 [Compound 13b] .
false (0)

====

Biological target: human α4β2 nAChR (Homo sapiens, UniProt P17787+P43681)
Construct: expressed in transfected cells; host or cells: HEK293
Sequence (P43681 29-627 limits assumed): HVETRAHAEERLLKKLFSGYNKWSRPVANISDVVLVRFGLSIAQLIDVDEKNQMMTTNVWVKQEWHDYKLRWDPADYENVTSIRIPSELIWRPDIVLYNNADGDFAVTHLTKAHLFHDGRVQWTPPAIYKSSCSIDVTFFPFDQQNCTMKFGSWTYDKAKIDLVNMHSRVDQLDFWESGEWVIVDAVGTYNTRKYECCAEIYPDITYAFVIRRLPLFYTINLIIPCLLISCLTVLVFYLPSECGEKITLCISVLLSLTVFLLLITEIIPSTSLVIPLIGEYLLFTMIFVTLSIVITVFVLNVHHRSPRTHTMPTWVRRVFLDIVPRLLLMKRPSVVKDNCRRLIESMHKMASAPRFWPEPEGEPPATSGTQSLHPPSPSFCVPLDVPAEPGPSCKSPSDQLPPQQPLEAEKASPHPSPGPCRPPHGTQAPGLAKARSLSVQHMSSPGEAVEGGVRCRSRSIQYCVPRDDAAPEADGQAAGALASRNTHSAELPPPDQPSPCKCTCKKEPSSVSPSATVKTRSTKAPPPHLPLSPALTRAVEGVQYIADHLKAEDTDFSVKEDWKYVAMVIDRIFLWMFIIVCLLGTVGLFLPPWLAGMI
Sequence (P17787 26-502): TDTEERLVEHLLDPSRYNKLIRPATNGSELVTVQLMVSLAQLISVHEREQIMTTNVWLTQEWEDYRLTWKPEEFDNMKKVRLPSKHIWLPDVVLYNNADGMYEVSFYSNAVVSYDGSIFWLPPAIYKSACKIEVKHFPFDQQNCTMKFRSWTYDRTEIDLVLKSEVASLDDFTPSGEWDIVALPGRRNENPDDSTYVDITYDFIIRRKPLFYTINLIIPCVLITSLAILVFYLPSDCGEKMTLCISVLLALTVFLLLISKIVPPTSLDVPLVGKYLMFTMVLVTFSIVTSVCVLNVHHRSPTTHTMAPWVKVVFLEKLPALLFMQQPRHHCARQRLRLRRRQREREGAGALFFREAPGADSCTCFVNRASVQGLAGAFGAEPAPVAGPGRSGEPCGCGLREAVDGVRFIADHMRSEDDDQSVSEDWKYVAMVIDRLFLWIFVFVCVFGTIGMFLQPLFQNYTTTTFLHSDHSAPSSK
Test: Radioligand displacement at human α4β2 nAChR, [3H]epibatidine, HEK293 cells
Format: binding
Conditions: stably transfected HEK-293 cells, [3H]epibatidine; read-out: Affinity (Ki in nM) hα4β2
Threshold 300 nM: Ki strictly smaller gives label 1, otherwise label 0.

CN1C2CCCC1CN(c1ccc3c(c1)S(=O)(=O)c1ccc(F)cc1-3)C2 [Compound 12a] | label 1
CN1CC2CCC(C1)N2c1ccc2c(c1)S(=O)(=O)c1c(F)cccc1-2 [Compound 14b] | label 0
O=S1(=O)c2ccc(F)cc2-c2ccc(N3CCN4CCC3CC4)cc21 [Compound 10a] | label 0
O=S1(=O)c2cc(N3CCN4CCC3CC4)ccc2-c2cccc(F)c21 [Compound 10b] | label 1

Could you now consider this next molecule?
hey, is Ki for CN1C2CCC1CN(c1ccc3c(c1)S(=O)(=O)c1c(F)cccc1-3)C2 [Compound 13b] lower than 300 nM or not?
label 0

====

Assay: Distribution coefficient, shake-flask method, n-octanol/PBS
Assay type: physicochemical
Conditions: n-octanol/phosphate-buffered saline; n-octanol-PBS, pH 7.2, shake-flask, n = 3; read-out: log D7.2
quantity measured: logD
Lab note: jot the number down without any unit.

May I ask what logD has been recorded for O=S1(=O)c2ccc([18F])cc2-c2ccc(N3CCN4CCC3CC4)cc21 [[^18F]10a] ?
1.3

====

Target: human α7 nAChR (Homo sapiens, UniProt P36544)
Construct: expressed in transfected cells; host or cells: SH-SY5Y
Experiment: Radioligand displacement at human α7 nAChR, [3H]methyllycaconitine, SH-SY5Y cells
Assay type: binding
Conditions: Ki hα4β2 divided by Ki hα7
Selectivity (Ki ratio) α7/α4β2 values by entry
Give a plain numeric answer without units written out.

Entry under review: O=S1(=O)c2ccc(F)cc2-c2ccc(N3CCN4CCC3CC4)cc21 [Compound 10a] . Reported Selectivity (Ki ratio) α7/α4β2?
862

Param item = CN1C2CCC1CN(c1ccc3c(c1)S(=O)(=O)c1c(F)cccc1-3)C2 [Compound 13b] ; retrieve measured Selectivity (Ki ratio) α7/α4β2.
10

What value of measured Selectivity (Ki ratio) α7/α4β2 is listed for O=S1(=O)c2ccccc2-c2cc(F)c(N3CCN4CCC3CC4)cc21 [Compound 10c] ?
59

Sample O=S1(=O)c2ccccc2-c2ccc(N3CCN4CCC3CC4)cc21 — what was its Selectivity (Ki ratio) α7/α4β2?
623

Request the reported Selectivity (Ki ratio) α7/α4β2 associated with CN1C2CCCC1CN(c1ccc3c(c1)S(=O)(=O)c1c(F)cccc1-3)C2 [Compound 12b]
3

Look at this compound and give its reported Selectivity (Ki ratio) α7/α4β2. CN1C2CCCC1CN(c1ccc3c(c1)S(=O)(=O)c1ccc(F)cc1-3)C2 [Compound 12a]
5

====

Molecular target: human 5-HT3 receptor (Homo sapiens)
Construct: host or cells: HEK-293
Sequence (P46098 24-478): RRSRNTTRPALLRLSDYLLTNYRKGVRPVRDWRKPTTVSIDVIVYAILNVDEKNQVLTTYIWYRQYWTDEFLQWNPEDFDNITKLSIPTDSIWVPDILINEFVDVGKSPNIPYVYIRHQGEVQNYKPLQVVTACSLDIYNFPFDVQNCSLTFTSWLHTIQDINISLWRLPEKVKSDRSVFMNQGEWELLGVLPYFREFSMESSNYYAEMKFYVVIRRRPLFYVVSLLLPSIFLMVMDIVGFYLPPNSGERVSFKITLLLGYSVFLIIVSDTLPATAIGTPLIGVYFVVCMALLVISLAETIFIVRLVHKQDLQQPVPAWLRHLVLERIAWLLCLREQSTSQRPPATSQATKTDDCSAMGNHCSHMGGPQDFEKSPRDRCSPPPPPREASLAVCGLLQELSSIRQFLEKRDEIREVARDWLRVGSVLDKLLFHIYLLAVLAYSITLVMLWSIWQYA
Experiment: Radioligand binding at human 5-HT3 receptor, [3H]GR65630 (Eurofins Panlabs)
Conditions: 0.1 μM concentration of test compound, [3H]GR65630 binding; read-out: 5-HT3 percentage of inhibition
quantity measured: inhibition at 0.1 µM (%)
The answer is to be given in %; state only the numeric part.

Examples with answers:
CN1C2CCCC1CN(c1ccc3c(c1)S(=O)(=O)c1c(F)cccc1-3)C2 [Compound 12b] | 11
CN1C2CCC1CN(c1ccc3c(c1)S(=O)(=O)c1c(F)cccc1-3)C2 [Compound 13b] | 10
O=S1(=O)c2ccc(F)cc2-c2ccc(N3CCN4CCC3CC4)cc21 [Compound 10a] | 2
O=S1(=O)c2cc(N3CCN4CCC3CC4)ccc2-c2cccc(F)c21 [Compound 10b] | 42
CN1C2CCCC1CN(c1ccc3c(c1)S(=O)(=O)c1ccc(F)cc1-3)C2 [Compound 12a] | 10

Need inhibition at 0.1 µM, item CN1CC2CCC(C1)N2c1ccc2c(c1)S(=O)(=O)c1c(F)cccc1-2 [Compound 14b]
4

Value lookup for inhibition at 0.1 µM; key = O=S1(=O)c2ccccc2-c2cc(F)c(N3CCN4CCC3CC4)cc21 [Compound 10c]
26
